Tested on: K4 kissing-loop RNA reporter;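 note: bound reporter read as fluorescence of individual clusters on recovered sequencing chips by microscopy, with normalized cluster intensities fitted with a binding model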
Assay: apparent KD of K4 kissing-loop reporter; higher = weaker reporter binding
Settings: Eterna round: R107; input ligand: arginine 13.2 mM
Reported apparent KD of K4 kissing-loop reporter values follow for various sequences
Experimental Endpoint: apparent KD of K4 kissing-loop reporter (nM)

1) AAAAUAAGCCAGUGAUGUUGGUAGCCAGAUACCAGCGACGAAAGUCGCCCUUGGCAGCUGUGGACGUACAAAAUAAGUACGUCCU
751
2) AACGCUGGUGAAUAACACUAGCGAAAAUUCCGAGGACCGGUACGGCCGCCACUCGGCUAACUGCGAGUGAUGUUCGAUAAUAAAA [Mat - Mod of OpenEnded 3 - D9]
183
3) CCAUGAGGAUAAGAUGAUAUCAUAACAGAAGGAGCGAGUGAUAACUCAGGUAGGUCGCUGAAUUUAUCGAGUGAUGUUCGAUGAA [Same State Arginine A GF11]
164
4) GAUGUCUAGAGAUCAUCUAGACACCUAGAUACCAGCAGAUAUAUCUGCCCUUGGCAGCUAGAACCAGUGAUGUUGGUAUAUGCUC [Theo A SS t3]
256
5) UGGACCAAGGAGUGAUGUUCCAAAUGUGAUACCAGCCACGAAAGUGGCCCUUGGCAGCACUGCCAGGACGAAAACGUCCGGUCCU [#SwitchBubble 12 #StaticStem #K4Early]
367
6) AAGUCUCGUUAAUUCGUGGUUUCGAUCGAUACCAGUAGCGAGAGUUACCCUUGGCAGCGAAAUGAGUGAUGUUCAUGAAAGAAGA [KL-XTheoA10]
101
7) GGUGUUGUUUGUGCCGUUUUCCUCGUUCCUCGAGGACCGGUACGGCCGCCACUCGAGUGAUGUUUGGGUAGCGAUCCCUGUUAGU [Bdazzled - #9 Exc. Tryptophan A]
646
8) AACUCUCAGACAUUUGAGUGAUGUUCAGGCCGAGGACCGGUACGGCCGCCACUCGGGUCUGAGAGAGGUUAUCAAAGAUAGCCAA [Omei KL Tryp A SS A v6]
179
9) ACAUCGGUUGAGAGUGAUGUUCCUUGUGUUCGAGGACCGGUACGGCCGCCACUCGGGUAGAAAAUAACAGAUGUGUUUCCUUUUU [BDazzled - #18 SS Tryptophan A]
80.5
10) GAACGGAGUGAUGUUCCGUUGACGAUCCUACGAGGACCGGUACGGCCGCCACUCGUAUUGCAGUGAUGUUGCAACCAGCCGUACU [Exclusion Tryptophan A GF 10]
112
11) GGAUCGCAUGGCGAAAAGCCAUGCGAUCCACGAGGACCGGUACGGCCGCCACUCGCCGGAGUGAUGUUCCGCUACAGAUCUUAAA
121
12) UUUUUAAUCGCAGAUACCAGUCCAGAAUAAAUACUAUAGUGAUGUUAUAUAUAAGGAAAGGACCCUUGGCAGCUGUACUAUAUUU [AstrosSsTheB#8]
322

----------
Tested on: MS2 coat protein
Assay: apparent KD of MS2 coat protein; designed switch direction (-1 OFF switch, 1 ON switch): -1; higher = weaker reporter binding
Conditions: input ligand: FMN 200 uM
Label rule, in plain words: apparent KD of MS2 coat protein of 40 nM and up is YES, under 40 nM is NO.

1. GCUGCAAGAGGAUAUACAUGAGGAUCACCCAUGUGGGAUCGCGUUCUGGAUCAGGACUGUAGAAGGUUUGUGCG [Eternabot (L1) Solution 63] (Eterna round: R97, puzzle: Exclusion 3)
YES
2. CCUCUAUUUGUGAGGAUAUCGGUAAACUGGAUUGUCGAGAAGGCACAUGAGGAUCACCCAUGUAUUGAACAGCA [JR_BMEx4_Sub021] (Eterna round: R97, puzzle: Brourd's mod of Exclusion 4)
YES
3. UCACCGCAAGGAUAUACUUGCGGUGAUGCUCGAAAUCUUCUACUUGAGGAUCACCCAAGUAGAAGGUGCGGUGA [jl-ex2.4.67 ViennaUCT mod] (Eterna round: R97, puzzle: Exclusion 2)
NO
4. ACCCUCCCGCAGGAUAUAAUAAAGUGGUACUUAUUAGAAGGGCGUACAUGAGGAUCACCCAUGUCGUGACGUGC [Eternabot (L1) Solution 5] (Eterna round: R97, puzzle: Exclusion 6)
NO
5. ACGCGUGAAGGAUAUACGCGGGCCCAAGCGGAUCACACCGCACAUGAGGAUCACCCAUGUAGAAGGUCGCAAAA [r4x2dt3] (Eterna round: R97, puzzle: Exclusion 2)
NO
6. GGAAGGAGUGUAAGGAUAUCCUCCUCGAAAGAGGAGGAGAAGGUACAUGAGGAUCACCCAUGUAGAGGAGGAGG [AK-MS2ROC-r4-Bmoexclusion4-10.1] (Eterna round: R97, puzzle: Brourd's mod of Exclusion 4)
YES
7. ACAAUUAUGACAGGAUAUAGUUUUUGUUGGUCACUAGAAGGGUCUAUGCACAUGAGGAUCACCCAUGUUCUUUUUAUAUGCGAU [JR_ExcNG1_Sub018] (Eterna round: R96, puzzle: Exclusion NG 1)
NO
8. UCGUUGUGAGGAUAUAUAUGCAGUAAUCCUUUAAAUUUAUAACUUGAGGAUCACCCAAGUAGAAGGCGCGACGU [JR_Ex2_Sub056] (Eterna round: R97, puzzle: Exclusion 2)
YES
9. ACAUGAGGAUCACCCAUGUGACAAUAAUGGCUGAUACAGAAACAGGAUAUUCGUGAAUAUCUAACGAAGAAGGGUUAUGACUGG [Deportation 68 - Jieux - Exclusion NG 3] (Eterna round: R96, puzzle: Exclusion NG 3)
NO
10. UAACAUCUGAUUCUUGAGAUACAUGAGGAUCACCCAUGUUCACAGGAUAUUGAUUUUAAGAAAAGCAAGAAGGGUGAAUCAUUU [JR_ExcNG3_Sub042] (Eterna round: R96, puzzle: Exclusion NG 3)
NO
11. GGGAGAGAGUGAGGAUAUCAAAGAACAUGAGGAUCACCCAUGUAACCUCAUGUAAGAAGAAGAAGUGAGAAGGCACAGGAGGGU [Default title] (Eterna round: R96, puzzle: Exclusion NG 2)
YES
12. CUUAUGUGAGGAUAUGCCUGGCCGUGAGGCCAAAUUGAUUAGCAGAAGGCACAUGAGGAUCACCCAUGUGCGGG [jl-ex4-4.67 ViennaUCT mod] (Eterna round: R97, puzzle: Exclusion 4)
YES
13. UAAUUAAUUAAUUAAUAAUACAUGAGGAUCACCCAUGUAGAUCCUACAUACAAGCUUUGUAGCUCGUCUUAUAAUUA [Stov1/3-A1] (Eterna round: R97, puzzle: Sensor, turn-off variant 1)
YES
14. UGGUCACAUGAGGAUCACCCAUGUCAGGAUAUCUACAUUGAAGCUUCGGCUUCAAUGUAGAGAAGGGAUAUAAU [E1/9-B1] (Eterna round: R97, puzzle: Exclusion 1)
YES
15. CGUGUGUGAGGAUAUGACAAUGGUAUCUUCGGAUACCAUUGUCAGAAGGUACAUGAGGAUCACCCAUGUAGAUC [Exclusion 4 - Mod Brourd Ex 4-3: 20 v.2] (Eterna round: R96, puzzle: Exclusion 4)
YES
16. CCAUAUAGGCGAGGAUAUACGCACCACUAACUAGUAGAAGGCGCACAUGAGGAUCACCCAUGUGAUUUCUCAAUAUUAUACAUC [Prohibition 72 - Jieux - Exclusion NG 1] (Eterna round: R96, puzzle: Exclusion NG 1)
YES
17. GUCCUGGACUAUCACAAGCACAUGAGGAUCACCCAUGUCAUGGGUGGGUCACUAAGUACGGCUACUGCUCGUCUUAU [Cac Sensor turn off var1 sub8] (Eterna round: R97, puzzle: Sensor, turn-off variant 1)
YES
18. GGAGCGGCAGGAUAUACAUGAGGAUCACCCAUGUAAAGAAGGGUAAGAAACCACCUCGGUAGAAGGGCCAGGAG [AK-MS2ROC-r4-exclusion3-10] (Eterna round: R97, puzzle: Exclusion 3)
YES
